# Tested on: Escherichia coli
# protocol description: Antibacterial activity against Escherichia coli CAN-ICU 63074 after 24 hrs by macrobroth dilution method
# Type: functional
# test parameters: CAN-ICU 63074, 24 h
assay metric: MIC (µg/mL)
Please reply with the bare figure in µg/mL and do not write the unit itself.

{"columns": ["compound", "subject of test", "MIC (µg/mL)"],
 "data": [
  ["NC[C@H]1OC(O[C@H]2[C@H](OCc3ccc(Cl)cc3)[C@@H](O[C@H]3O[C@H](COCc4ccc(Cl)cc4)[C@@H](OCc4ccc(Cl)cc4)[C@H](N)[C@H]3OCc3ccc(Cl)cc3)[C@H](N)C[C@@H]2N)[C@H](OCc2ccc(Cl)cc2)[C@@H](OCc2ccc(Cl)cc2)[C@@H]1OCc1ccc(Cl)cc1.O=C(O)C(F)(F)F (stereo partly drawn)", "Escherichia coli", 64]
]}

Determine its reported MIC: "NC[C@@H]1O[C@H](O[C@H]2[C@@H](OC(=O)Nc3ccccc3)[C@H](O[C@@H]3[C@@H](OC(=O)Nc4ccccc4)[C@H](N)C[C@H](N)[C@H]3O[C@H]3O[C@H](CN)[C@@H](OC(=O)Nc4ccccc4)[C@H](OC(=O)Nc4ccccc4)[C@H]3N)O[C@@H]2COC(=O)Nc2ccccc2)[C@H](N)[C@@H](OC(=O)Nc2ccccc2)[C@@H]1OC(=O)Nc1ccccc1.O=C(O)C(F)(F)F" 16
